# experimental_details: Measurement of LogP values by HPLC on reversed phase columns (EEC directive 79/831 Annex V.A8)
# Format: physicochemical
Marks after values point to notes of the source that are not given here.
readout_type: LogP

# substance_smiles, LogP
records = [
    ("O=C(c1cc(NCc2ccccc2)ns1)N(Cc1cc(Cl)ccc1F)C1CC1", "4.06[a]"),
]

Give me LogP for each of these compounds, listed below.
1. COc1ccc(CNc2nsc(C(=O)N(Cc3ccc(F)cc3F)C3CC3)c2Cl)c(OC)c1
2. COc1ccc(CNc2nsc(C(=O)N(Cc3cc(Cl)ccc3Br)C3CC3)c2Cl)cc1
3. Nc1cc(C(=O)NCc2ccc(F)c(F)c2)sn1
4. CCOc1ccccc1CNC(=O)c1snc(NCc2ccc(OC)cc2)c1Cl

Output:
4.46[a]
4.98[a]
1.54[a]
4.08[a]

* * *

For each entry below, report its LogP value.
# experimental_details: Measurement of LogP values by HPLC on reversed phase columns (EEC directive 79/831 Annex V.A8)
# Assay type: physicochemical
Marks after values point to notes of the source that are not given here.

// known answers, use as guide
# molecule, LogP
measured = [
    ("CC(c1ccccc1)N(C(=O)c1snc(N)c1Cl)C1CC1 (centres unmarked) [I-886]", "2.73[a]"),
    ("Cc1ccc(NC(=O)c2snc(N)c2Br)cc1Cl [I-965]", "2.88[a]"),
]

Give me LogP for each of these molecules, listed below.
1. COc1ccc(CNc2nsc(C(=O)NCCc3ccc(F)cc3)c2Cl)cc1 [I-961]
2. CCn1cc(CNC(=O)c2snc(NCc3ccc(OC)cc3)c2Cl)c(C(F)F)n1 [I-1198]
3. COc1ccc(CNc2nsc(C(=O)NCC3CCC(C(F)(F)F)CC3)c2Cl)cc1 (centres unmarked) [I-107]
4. CC(c1cc(Cl)cc(Cl)c1)N(C(=O)c1snc(N)c1Cl)C1CC1 (centres unmarked) [I-952]

Output:
3.72[a]
3.09[a]
4.30[a]
3.70[a]

* * *

For each entry below, report its LogP value.
# experimental_details: Measurement of LogP values by HPLC on reversed phase columns (EEC directive 79/831 Annex V.A8)
# Type: physicochemical
# Experimental: The abbreviations and numerations of the substituent positions used in the context of the present invention and in the following Tables are explained in detail in the section Examples hereinafter. Also, the LogP values indicated in the following Tables are explained in detail in the section Examples hereinafter. […] Lambda-max-values were determined using UV-spectra from 200 nm to 400 nm and the peak values of the chromatographic signals
Marks after values point to notes of the source that are not given here.

// known answers, use as guide
# molecule, LogP
rows = [
    ("COc1ccc(CNc2nsc(C(=O)NCC3(O)CCCCC3)c2Cl)cc1 [I-105]", "3.09[a]"),
    ("COc1ccc(CNc2nsc(C(=O)NC3CC(C(F)(F)F)CC(C(F)(F)F)C3)c2Cl)cc1 (stereo not shown) [I-1218]", "4.30[a]"),
    ("COc1ccc(CNc2nsc(C(=O)NCC3OCCc4ccccc43)c2Cl)cc1 (stereo not shown) [I-1208]", "3.72[a]"),
    ("COc1ccc(CNc2nsc(C(=O)NC3(C#N)CCCC3C)c2Cl)cc1 (stereo not shown) [I-1220]", "3.41[a]"),
    ("COc1ccc(CNc2nsc(C(=O)NC3CC(C)(C)Cc4oc(C)cc43)c2Cl)cc1 (stereo not shown) [I-1325]", "4.74[a]"),
    ("C#CCNc1nsc(C(=O)N[C@@H](C)C2CCCCC2)c1Cl [I-062]", "3.56[a]"),
]

Give me LogP for each of these molecules, listed below.
1. Nc1nsc(C(=O)NCc2ccc(Cl)cc2Cl)c1Cl [I-018]
2. CC(C)(C)c1ccc2c(c1)CC(NC(=O)c1snc(N)c1Cl)CC2 (stereo not shown) [I-1534]
3. COc1ccc(CNc2nsc(C(=O)NC3CC34CCCCC4)c2Cl)cc1 (stereo not shown) [I-1548]
4. COc1ccc(CNc2nsc(C(=O)NCc3cc(OC)c(OC)c(OC)c3)c2Cl)cc1 [I-1344]
5. Nc1nsc(C(=O)NCc2ccccc2F)c1-c1ccc(F)cc1 [I-335]
6. Cc1c(N)nsc1C(=O)NCc1ccc(Cl)nc1 [I-110]
7. Cc1ccc(F)c(CN(C(=O)c2cc(N(Cc3ccccc3)Cc3ccccc3)ns2)C2CC2)c1 [I-990]

Output:
1. 2.62[a]
2. 3.94[a]
3. 4.39[a]
4. 3.08[a]
5. 2.43[a]
6. 1.09[a]
7. 5.56[a]

Give me LogP for each of these molecules, listed below.
1. COc1c(N)nsc1C(=O)NCc1c(F)cc(F)cc1F [I-732]
2. O=C(NCc1ccc(Cl)cc1)c1cc(N(Cc2ccccc2)Cc2ccccc2)ns1 [I-314]
3. O=C(NCC1CCCCC1)c1cc(N(Cc2ccccc2)Cc2ccccc2)ns1 [I-540]
4. COc1ccc(CNc2nsc(C(=O)N(Cc3ccc(Cl)cc3Cl)C3CCC3)c2Cl)cc1 [I-934]
5. O=C(NCCc1ccccc1)c1snc(N(Cc2ccccc2)Cc2ccccc2)c1-c1ccc(F)cc1 [I-983]

Output:
1. 1.82[a]
2. 4.85[a]
3. 5.22[a]
4. 5.56[a]
5. 5.68[a]

Input: Using the record for COc1ccc(CNc2nsc(C(=O)N(C3CCCCC3)C3CC3)c2Cl)cc1 [I-893] , report its LogP.
Output: 4.67[a]

* * *

For each entry below, report its LogP value.
# experimental_details: Measurement of LogP values by HPLC on reversed phase columns (EEC directive 79/831 Annex V.A8)
# Format: physicochemical
# Procedure: The abbreviations and numerations of the substituent positions used in the context of the present invention and in the following Tables are explained in detail in the section Examples hereinafter. Also, the LogP values indicated in the following Tables are explained in detail in the section Examples hereinafter. […] Lambda-max-values were determined using UV-spectra from 200 nm to 400 nm and the peak values of the chromatographic signals
Marks after values point to notes of the source that are not given here.

// known answers, use as guide
# compound, LogP
records = [
    ("CC(=O)Nc1nsc(C(=O)NCc2ccc(C#N)cc2)c1Cl [I-847]", "1.24[a]"),
    ("COc1ccc(CNc2nsc(C(=O)N(Cc3cc(C)ccc3C)C3CC3)c2Cl)cc1 [I-876]", "4.77[a]"),
    ("Nc1nsc(C(=O)NC2(c3ccc(F)cc3)CC2)c1Cl [I-023]", "2.02[a]"),
    ("Nc1nsc(C(=O)NCC2CCCCC2Cl)c1I (centres unmarked) [I-1293]", "2.50[a]"),
]

Turning now to a further record.
Input: Using the record for COc1ccc(CNc2nsc(C(=O)NC3C(C(C)C)CCCC3C(C)C)c2Cl)cc1 (centres unmarked) [I-1219] , report its LogP.
Output: 6.32[a]

* * *

# experimental_details: Measurement of LogP values by HPLC on reversed phase columns (EEC directive 79/831 Annex V.A8)
# Format: physicochemical
# Description: The abbreviations and numerations of the substituent positions used in the context of the present invention and in the following Tables are explained in detail in the section Examples hereinafter. Also, the LogP values indicated in the following Tables are explained in detail in the section Examples hereinafter. […] Lambda-max-values were determined using UV-spectra from 200 nm to 400 nm and the peak values of the chromatographic signals
Marks after values point to notes of the source that are not given here.
For each entry below, report its LogP value.

// known answers, use as guide
# compound, LogP
records = [
    ("O=C(NC1CCCC2CCCCC21)c1snc(NCc2ccccc2)c1NCc1ccccc1 (stereo not drawn) [I-047]", "5.65[a]"),
    ("COc1ccc(CNc2nsc(C(=O)N(Cc3c(Cl)cccc3C(F)(F)F)C3CC3)c2Cl)cc1 [I-946]", "4.91[a]"),
    ("COc1ccc(CNc2nsc(C(=O)NCCCn3ccnc3)c2Cl)cc1 [I-1244]", "1.36[a]"),
    ("COc1ccc(CNc2nsc(C(=O)N(Cc3cc(Cl)ccc3F)C3CC3)c2Cl)cc1 [I-988]", "4.49[a]"),
    ("CCC(=O)Nc1nsc(C(=O)NCc2ccc(F)cc2C)c1Cl [I-817]", "2.15[a]"),
    ("C[C@H](NC(=O)c1snc(NC(=O)C2CC2)c1Cl)C1CCCCC1 [I-090]", "2.99[a]"),
    ("COc1ccc(CNc2nsc(C(=O)NC3CCOCC3C)c2Cl)cc1 (stereo not drawn) [I-1336]", "2.80[a]"),
    ("Nc1cc(C(=O)NCc2cc(F)cc(F)c2)sn1 [I-303]", "4.55[a]"),
]

Turning now to a further record.
Input: Using the record for O=C(NCc1ccc(Cl)cc1Cl)c1cc(N(Cc2ccccc2)Cc2ccccc2)ns1 [I-323] , report its LogP.
Output: 5.17[a]
